Counter-ions that a name gives are not always drawn.
Property Name: melting point (°C)

- COc1c(Nc2ccc(Cl)cc2)nc(C#N)nc1N1CCOCC1: 176
- COc1c(Nc2ccc(Cl)cc2)nc(C#N)nc1N(C)C: 173
- COc1c(Nc2ccc(Cl)cc2)nc(C#N)nc1N1CCNC(=O)C1: 244
- COc1c(Nc2ccc(Cl)cc2)nc(C#N)nc1N1CCNCC1 (as salt: trifluoroacetate): 230

====

Listing: melting point of selected compounds
Where a name gives a salt, the structure may show the parent alone.

# example entries with known answers
* CCNc1nc(C#N)nc(Nc2ccc(Cl)cc2)c1N [Example 53] | 211 to 212 °C
* COc1c(Nc2ccc(Cl)cc2)nc(C#N)nc1N1CC[C@H](N)C1 (as salt: trifluoroacetate) [Example 46] | 345 to 347 °C
* COc1c(Nc2ccc(Cl)cc2)nc(C#N)nc1N1CCN(CCCN(C)C)CC1 (as salt: trifluoroacetate) [Example 47] | 210 to 212 °C

Then this compound:
Ask: I have this compound here, N#Cc1nc(Nc2ccc(Cl)cc2)c(N)c(N2CCOCC2)n1 [Example 52] , and I need its recorded melting point.
Reply: 253 to 254 °C

Entry source: patent US7125881B2
